assay: M. tuberculosis H37Rv growth inhibitors, H37Rv strain (AID 1626); conditions: stronger effect = higher value, concentration not given here;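 note: bacteria incubated seven days before Alamar blue readout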
The whole screen tested about 220,000 compounds, of which about 2,000 (0.91%) were called active. Roughly 2% stayed inconclusive and do not appear here. Not all results are given here. Measured potencies and affinities stand elsewhere.
The label depends only on inhibition: T if it is at least 10%, F if it is smaller.

The examples below pair each entry with its known result.
Smiles String | Group
C=CCn1c(=NC(=O)c2cc(Cl)sc2Cl)sc2cc(S(N)(=O)=O)ccc21 | T
Cn1c2c(c(=O)n(C)c1=O)C(C(F)(F)F)(C(F)(F)F)N=C(c1ccccc1Cl)N2 | F
CCC(=O)Nc1cccc(C(=O)/C=C/c2cccs2)c1 | T
COc1cc([N+](=O)[O-])ccc1NC(=O)/C=C\C(=O)O | F

Would you kindly look at the next entry?
Q: Quick check: does "COc1ccccc1NC(=O)O/N=C(\N)c1ccccc1" have inhibition greater than or equal to 10%?
A: T
